test system: NCI-H226 lung; assay: NCI-60 one-dose screen, 48 h (100 = growth as untreated, 0 = no growth, -100 = all killed); details: 10 µM unless noted
This is part of a sample that, as a whole, favours compounds with a hit. Of some 83,000 tested, about 20% had one in any assay.
Please enter condition met where growth is greater than or equal to 90%, and condition not met where it is lower.

{"Molecule": "O=C(NCCNc1nccc(Nc2ccc(S(=O)(=O)Nc3ccccn3)cc2)n1)c1cccc([N+](=O)[O-])c1", "Measured On": "NCI-H226 lung", "Cat": "condition met"}
{"Molecule": "O=S(=O)(NCCCNc1nccc(-c2c(-c3ccc(F)c(O)c3)nc3occn23)n1)c1ccc(Cl)cc1", "Measured On": "NCI-H226 lung", "Cat": "condition met"}

[ask] Does the reported growth for Cn1cc(-c2csc(-c3cn(C(=O)OC(C)(C)C)c4ccc(Br)cc34)n2)c2ccnc(Cl)c21 fall at or above the 90% mark?
[reply] condition not met

[ask] Let us now turn to Cc1[nH]c(C(=O)Nc2ccccc2OC2CCNCC2)c(Cl)c1Cl
[reply] condition met

[ask] Let us now turn to COc1cc2c(cc1OC)C(C)N(S(N)(=O)=O)CC2 (configuration not stated)
[reply] condition not met

[ask] Let us now turn to COc1ccccc1CNc1c2ccccc2nc2ccccc12
[reply] condition not met

* * *

tested on: U251 CNS; test: NCI-60 one-dose screen, 48 h (100 = growth as untreated, 0 = no growth, -100 = all killed); details: 10 µM unless noted
The panel holds about 83,000 compounds, 20% with a hit somewhere; the sample as a whole holds those more often.
Recorded Endpoint: growth (%)
# number only, unit % dropped from output

Recorded results for 5 compounds are shown here.
{"Compound": "COC1=CC(c2ccc[nH]2)=N/C1=C\\c1[nH]c(C)c(C)c1CCC(=O)OCc1ccccc1", "Numeric Readout": -40.4}
{"Compound": "O=C(Nc1nc2cc(C(=O)N3CCN(C(c4ccccc4)c4ccccc4)CC3)ccc2o1)c1ccc(NC2CCCCC2)c([N+](=O)[O-])c1", "Numeric Readout": 32.5}
{"Compound": "[O-]/[N+](=C\\c1ccc(-n2cc(Cc3ccccc3Cc3cn(-c4ccc(/C=[N+](/[O-])c5ccccc5)cc4)nn3)nn2)cc1)c1ccccc1", "Numeric Readout": 107}
{"Compound": "CSc1nc2ncc([N+](=O)[O-])c(=O)n2[nH]1", "Numeric Readout": 102}
{"Compound": "Nc1cc(C(=O)NC[C@H]2CN(c3ccc(N4CCC(C(=O)O)CC4)cc3)C(=O)O2)ccc1Cl", "Numeric Readout": 103}

[ask] Sample Cc1cc(=O)n(C(=O)Nc2ccccc2Cl)c2cc(O)ccc12 — what was its growth?
[reply] 98.6

[ask] Let us now turn to CC1CCN(S(=O)(=O)c2ccc(S(=O)(=O)N3CCCC(c4nc5c(nnn5Cc5cccc(Cl)c5)c(=O)[nH]4)C3)cc2)CC1 (centres undefined)
[reply] 45.1

[ask] Let us now turn to O=C1C(Cl)=C(Nc2ccc(S(=O)(=O)N3CCOCC3)cc2)C(=O)c2ccccc21
[reply] 44.6

[ask] Let us now turn to O=C(Nc1ccccc1)Nc1ncnc2c1ncn2-c1ccc(Cl)cc1
[reply] 77.6

* * *

system: UACC-257 melanoma; assay: NCI-60 one-dose screen, 48 h (100 = growth as untreated, 0 = no growth, -100 = all killed); conditions: 10 µM unless noted
About 83,000 compounds went through this panel and 20% of them were active in at least one assay; those are over-represented in the sample as a whole.
Reported growth values follow for various compounds
# number only, unit % dropped from output

Recorded results for 4 compounds are shown here.
{"Compound": "CSc1nc(N)c(NS(=O)(=O)c2ccc(C(C)=O)cc2)c(=O)[nH]1", "Endpoint Unit": "%", "growth": 105}
{"Compound": "CCCNc1nc2ccccc2c2c1S(=O)(=O)c1ccc(Cl)cc1C2=O", "Endpoint Unit": "%", "growth": 17.8}
{"Compound": "CN(c1cc2ncc(=O)[nH]c2cc1NC(N)=NCc1ccc(Cl)cc1)C1CCCCC1", "Endpoint Unit": "%", "growth": 106}
{"Compound": "Cn1cc(-c2csc(-c3c[nH]c4ccc(Br)cc34)n2)c2ccnc(Cl)c21", "Endpoint Unit": "%", "growth": 17.4}

[ask] Sample COc1ccc(C2=C(Nc3ccc(C(=O)Nc4ccccc4)cc3)C(=O)N(C)C2=O)cc1 — what was its growth?
[reply] 87.6

[ask] Let us now turn to COc1cc(C2c3cc(OC(C)=O)c(OC)cc3CC3C(=O)OCC32)ccc1OC(C)=O (stereo not given)
[reply] 103

[ask] Let us now turn to Cc1cccc(CNc2c3ccccc3nc3ccccc23)c1
[reply] 36.2

[ask] Let us now turn to O=S(=O)(NCCCNc1nccc(-c2c(-c3ccc(F)c(O)c3)nc3sccn23)n1)c1ccccc1
[reply] 19.6

* * *

test system: K-562 leukemia; assay: NCI-60 one-dose screen, 48 h (100 = growth as untreated, 0 = no growth, -100 = all killed); conditions: 10 µM unless noted
This is part of a sample that, as a whole, favours compounds with a hit. Of some 83,000 tested, about 20% had one in any assay.
Just so you know, the groups by growth go like this: Low: < 20%; Mid: ≥ 20% and < 70%; High: ≥ 70%

{"Molecule": "C1CCC([PH+](C2CCCCC2)C2CCCCC2[PH+](C2CCCCC2)C2CCCCC2)CC1.[Au].[CH-]1CCCCC1C1CCCC[N-]1 (configuration not stated)", "Cat": "Low"}
{"Molecule": "O=[N+]([O-])c1ccc(O)cc1Br", "Cat": "High"}
{"Molecule": "CSc1nnc(-c2cc3c([nH]c4ccccc43)c(-c3cccc(O)c3)n2)n1-c1ccccc1", "Cat": "Low"}
{"Molecule": "COc1ccc(Nc2nnc(-c3ccc(OC)c(OC)c3)o2)cc1", "Cat": "High"}
{"Molecule": "C=CCn1c(C)nc2ccc(Nc3nc(Nc4ccc5nc(C)n(CC=C)c5c4)c4ccccc4n3)cc21", "Cat": "Low"}

API: the following record is the query input.
[ask] // bin(item) where item = COc1ccc(C2=Nc3c(N)nc(N)nc3NC(c3cccc(Nc4ccnc5cc(C(F)(F)F)ccc45)c3)C2)cc1 (configuration not stated)
[reply] Low

* * *

tested on: SNB-19 CNS; assay: NCI-60 one-dose screen, 48 h (100 = growth as untreated, 0 = no growth, -100 = all killed); details: 10 µM unless noted
This is part of a sample that, as a whole, favours compounds with a hit. Of some 83,000 tested, about 20% had one in any assay.
Please enter yes (1) where growth is greater than or equal to 90%, and no (0) where it is lower.

The examples below pair each entry with its known result.
{"Compound": "CCC(C(=O)[C@@H](C)[C@@H](O)[C@H](C)[C@@H]1O[C@@H]([C@@H](CC)C(=O)ONC(=O)c2ccccc2)CC[C@@H]1C)[C@H]1O[C@]2(C=CC(=O)[C@]3(CC[C@@](C)([C@H]4CC[C@](O)(CC)[C@H](C)O4)O3)O2)[C@H](C)C[C@@H]1C (stereo partly specified)", "Cat": "no (0)"}
{"Compound": "CCC(=C(c1ccc(OCCN2CCCCC2)cc1)c1ccc(OCCN2CCCCC2)cc1)c1ccc(Cl)cc1", "Cat": "no (0)"}
{"Compound": "N#Cc1nc(-c2ccc(Cl)cc2)oc1S(=O)(=O)N1CCN(c2ccc(F)cc2)CC1", "Cat": "yes (1)"}
{"Compound": "COc1cc(C2c3cc(OC(C)=O)c(OC)cc3CC3C(=O)OCC32)ccc1OC(C)=O (stereo unspecified)", "Cat": "yes (1)"}
{"Compound": "COC(=O)c1nc(-c2ccccc2)oc1S(=O)(=O)Cc1ccccc1", "Cat": "yes (1)"}

[ask] Does the reported growth for CCCC/C(CC)=N\NS(=O)(=O)c1ccc([N+](=O)[O-])cc1 fall at or above the 90% mark?
[reply] yes (1)

[ask] Let us now turn to COc1ccc(OC)c(/C=N/Nc2ncnc3c2c(C)nn3C)c1
[reply] yes (1)

[ask] Let us now turn to COc1ccc(C2=Nc3c(N)nc(N)nc3NC(c3cccc(Nc4ccnc5cc(C(F)(F)F)ccc45)c3)C2)cc1 (stereo unspecified)
[reply] no (0)

* * *

test system: HCC-2998 colon; assay: NCI-60 one-dose screen, 48 h (100 = growth as untreated, 0 = no growth, -100 = all killed); conditions: 10 µM unless noted
Compounds without any hit were thinned out: in the full panel of roughly 83,000, 20% have a hit.
Reported growth values follow for various molecules
# number only, unit % dropped from output

{"Molecule": "CCOC(=O)C1=C(C)NC(=O)NC1c1c(Cl)n(CCCl)c2ccccc12 (stereo not drawn)", "Endpoint Unit": "%", "Numeric Readout": 96.3}
{"Molecule": "CCCCCCCCCc1ccc(OCCOCCOCCOCCOCCOCCOCCOCCOCCO)cc1", "Endpoint Unit": "%", "Numeric Readout": 23.3}
{"Molecule": "C=C1C(=O)O[C@H]2[C@H]1CC/C(Cn1cc(-c3ccccc3)nn1)=C\\CC[C@@]1(C)O[C@@H]21", "Endpoint Unit": "%", "Numeric Readout": 5.21}
{"Molecule": "CCO/C=N/C1=C(C#N)C(c2ccc(Cl)cc2)c2sc3c(F)cccc3c2O1 (stereo not drawn)", "Endpoint Unit": "%", "Numeric Readout": 84.2}
{"Molecule": "COc1cc(NS(=O)(=O)c2ccc(-c3cnc(C4CC4)o3)cc2)ccc1F", "Endpoint Unit": "%", "Numeric Readout": 38.4}
{"Molecule": "Nc1nc2ccc(-c3nc4ccc5[nH]ncc5c4c4c3CCCC4)cc2s1", "Endpoint Unit": "%", "Numeric Readout": 107}

API: the following record is the query input.
[ask] Sample CCOC(=O)c1csc(NC(=O)COc2ccc(/C=C3\Oc4ccccc4C3=O)cc2)n1 — what was its growth?
[reply] 106
